# Assay Info: chemical genetic growth profiling, strain panel (AID 1159580);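 note: tested at 20 µM; growth read once vehicle control cultures reached saturation at 30 °C; 1 = growth at the plate median or of vehicle wells; lower values mean less growth of the strain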
# Protocol Conditions: S. cerevisiae deletion strains, growth OD, locus YDL101C, strain DUN1
Screen size: about 5,500 compounds; about 2,000 (36%) were called active. About 18% were inconclusive and are not listed. Cut-off read from the data, not from the text of the source: active = normalized growth mostly below about 0.91 (no sharp cut-off); inconclusive = no clear call, values can overlap the other calls; inactive = mostly above about 0.92. Some of the results follow.
# output must be one of y (active), n (inactive)

Worked examples, 2 compounds total:
# Compound, Label Class
measured = [
    ("CC(=O)O[C@@H]1C[C@@]2(C)[C@H](c3ccoc3)C[C@H]3O[C@]32[C@]2(C)C(=O)C(O)=C3C(C)(C)C(=O)C=C[C@]3(C)C12 (some centres undefined)", "n"),
    ("CC1(C)C(=O)C=C[C@@]2(C)C1=C(O)C(=O)[C@]1(C)C2CC[C@@]2(C)[C@H](c3ccoc3)C[C@H]3O[C@]321 (some centres undefined)", "y"),
]

Prompt: Which outcome was assigned to CS(=O)(=O)CCCCN=C=S in this test?
Response: y

Prompt: Which outcome was assigned to CC(=O)OC1CC(OC(C)=O)C2(C)C(CC(OC(C)=O)C3(C)C2CCC2(C)C(c4ccoc4)CC4OC423)C1(C)C (centres undefined) in this test?
Response: n

----------
Measured normalized growth, listed per entry.
# Assay Info: chemical genetic growth profiling, strain panel (AID 1159580);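 note: tested at 20 µM; growth read once vehicle control cultures reached saturation at 30 °C; 1 = growth at the plate median or of vehicle wells; lower values mean less growth of the strain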
# Protocol Conditions: S. cerevisiae deletion strains, growth OD, locus YHR200W, strain rpn10, hits give low values
Hit rate of the full screen: of about 5,500 compounds, about 2,000 (36%) were called active. About 18% were inconclusive and are not listed. This is one part of the list.

Example entries begin here.
# Compound, normalized growth
data = [
    ("C=CCC1(C(C)CCC)C(=O)N=C(S)NC1=O (stereo not drawn)", "0.965 (inactive)"),
    ("CCC[C@H]1CC2=C(C[C@@H](CC)CC3=C1C(=O)OC3=O)C(=O)OC2=O", "1 (inactive)"),
    ("COC(=O)[C@]1(C)CC[C@]2(C)CC[C@]3(C)C4=CCc5c(cc(O)c(O)c5C)[C@]4(C)CC[C@@]3(C)C2C1 (stereo partly drawn)", "0.986 (inactive)"),
]

Prompt: Look up normalized growth for this compound: NCC(O)c1ccc(O)cc1 (stereo not drawn)
Response: 0.98 (inactive)

Prompt: Look up normalized growth for this compound: O=C(O[C@@H]1Cc2c(O)cc(O)cc2O[C@@H]1c1cc(O)c(O)c(O)c1-c1c([C@H]2Oc3cc(O)cc(O)c3C[C@H]2O)cc(O)c(O)c1O)c1cc(O)c(O)c(O)c1
Response: 0.569 (active)

Prompt: Look up normalized growth for this compound: CC(C)NCC(O)c1ccc(O)c(O)c1 (stereo not drawn)
Response: 1 (inactive)

Prompt: Look up normalized growth for this compound: Oc1c(Cl)cc(Cl)c2cccnc12
Response: 0.066 (active)

Prompt: Look up normalized growth for this compound: N[C@@H](Cc1ccc(O)c(O)c1)C(=O)O
Response: 0.992 (inactive)

----------
# Assay Info: chemical genetic growth profiling, strain panel (AID 1159580);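 note: tested at 20 µM; growth read once vehicle control cultures reached saturation at 30 °C; 1 = growth at the plate median or of vehicle wells; lower values mean less growth of the strain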
# Protocol Conditions: S. cerevisiae deletion strains, growth OD, locus YDR318W, strain mcm21, hits give low values
The campaign covered roughly 5,500 compounds. About 2,000 (36%) were called active. Another 18% or so got no clear call; they are omitted. The list shows a part of the results.
Assay Metric: normalized growth
A bare number is all that is needed in reply.

# Molecule, normalized growth
data = [
    ("O=C(O)c1cccnc1Nc1cccc(C(F)(F)F)c1", 0.953),
    ("COC(=O)[C@]1(C)CC[C@]2(C)CC[C@]3(C)C4=CCc5c(cc(O)c(O)c5C)[C@]4(C)CC[C@@]3(C)C2C1 (some centres not stated)", 0.994),
    ("Cc1c(O)c(O)cc2c1CC=C1[C@@]2(C)CC[C@@]2(C)C3C[C@](C)(C(=O)O)CC[C@]3(C)CC[C@]12C (some centres not stated)", 0.917),
]

Prompt: Look up normalized growth for this molecule: NCC(CC(=O)O)c1ccc(Cl)s1 (configuration not stated)
Response: 0.968

Prompt: Look up normalized growth for this molecule: CCCC(C)C1(CC)C(=O)N=C(S)NC1=O (configuration not stated)
Response: 0.0671

Prompt: Look up normalized growth for this molecule: COC(=O)Oc1ccccc1C(=O)O
Response: 1.01

Prompt: Look up normalized growth for this molecule: CCCC(C)C1(CC)C(=O)NC(=O)NC1=O (configuration not stated)
Response: 1.03

Prompt: Look up normalized growth for this molecule: CCN(CC)CCNC(=O)c1cc(S(C)(=O)=O)ccc1OC
Response: 1.02

Prompt: Look up normalized growth for this molecule: CCOP(=S)(OCC)SCn1c(=O)oc2cc(Cl)ccc21
Response: 0.993

FYI, the data here is from PubChem BioAssay AID1159580.
